- Test system: NCI-H226
- EXPERIMENT_SUMMARY: NCI tumour cell line growth inhibition, 48 h
Active and inactive are the calls of the source. Cut-off read from the data, not from the text of the source: active = GI50 up to about 1.1 µM and inactive = higher.
Consider the following molecules and their measured GI50 readings.

[
  {
    "MOLECULE": "C/C(O[Si](C(C)C)(C(C)C)C(C)C)=C(\\C)C(=O)N(C)c1ccccc1Cl",
    "TARGET_OR_TEST_SYSTEM": "NCI-H226",
    "GI50": "> 100 µM (inactive)"
  },
  {
    "MOLECULE": "CN1C(=O)C2(C)SC1(c1ccccc1)C1C(=O)N(c3ccccc3)C(=O)C12 (stereo not given)",
    "TARGET_OR_TEST_SYSTEM": "NCI-H226",
    "GI50": "60.4 µM (inactive)"
  },
  {
    "MOLECULE": "CC1(C)OCC=CCO1",
    "TARGET_OR_TEST_SYSTEM": "NCI-H226",
    "GI50": "> 100 µM (inactive)"
  },
  {
    "MOLECULE": "C/C(=C/CC[C@](C)(OC1OC(CO)C(O)C(O)C1O)[C@H]1CC[C@]2(C)[C@@H]1CC[C@@H]1[C@@]3(C)CC[C@H](O)C(C)(C)[C@@H]3C[C@H](O)[C@]12C)CO (stereo not given in full)",
    "TARGET_OR_TEST_SYSTEM": "NCI-H226",
    "GI50": "26.8 µM (inactive)"
  },
  {
    "MOLECULE": "CC(=O)NNc1nc(C)c(C(/C=C/c2ccc([N+](=O)[O-])cc2)=N/NC(N)=S)s1",
    "TARGET_OR_TEST_SYSTEM": "NCI-H226",
    "GI50": "> 100 µM (inactive)"
  },
  {
    "MOLECULE": "Cc1ccc(NC(=O)C(=O)Cc2cc[n+]([O-])cc2)cc1",
    "TARGET_OR_TEST_SYSTEM": "NCI-H226",
    "GI50": "> 100 µM (inactive)"
  },
  {
    "MOLECULE": "c1ccc(C2N=C(c3ccccn3)C(c3ccccn3)=NC2c2ccccc2)cc1 (stereo not given)",
    "TARGET_OR_TEST_SYSTEM": "NCI-H226",
    "GI50": "> 100 µM (inactive)"
  },
  {
    "MOLECULE": "COc1cc(OC2OC(CO)C(O)C(O)C2O)c2c(c1)O[C@@H]1[C@H](O)Oc3cc(OC)c(OC)cc3[C@]1(O)C2=O (stereo not given in full)",
    "TARGET_OR_TEST_SYSTEM": "NCI-H226",
    "GI50": "> 25 µM (inactive)"
  },
  {
    "MOLECULE": "CCN(CC)/[N+]([O-])=N/OCC(C)O (stereo not given)",
    "TARGET_OR_TEST_SYSTEM": "NCI-H226",
    "GI50": "> 100 µM (inactive)"
  },
  {
    "MOLECULE": "C/C(=N/O)c1cccc(Nc2nc3ccccc3c3[nH]c4ccccc4c23)c1",
    "TARGET_OR_TEST_SYSTEM": "NCI-H226",
    "GI50": "4.8 µM (inactive)"
  }
]

---

- System: K562
- EXPERIMENT_SUMMARY: NCI tumour cell line growth inhibition, 48 h
Active and inactive are the calls of the source. No stated cut-off is given here; in the data, active = GI50 up to about 1.1 µM and inactive = higher.
Outcomes: true = active, false = inactive

[
  {
    "MOLECULE": "COC(=O)C1=C(C(=O)OC)C2(/N=C(\\Nc3ccccc3)c3ccccc3)N(c3ccc(OC)cc3)CC(c3ccccc3)N2O1 (configuration not stated)",
    "CLASS_LABEL": "false"
  },
  {
    "MOLECULE": "c1ncn(C23C4C5C6C4C2C6C53)n1 (configuration not stated)",
    "CLASS_LABEL": "false"
  },
  {
    "MOLECULE": "N#CC1CCCC2SC(F)(F)C(F)(F)C12 (configuration not stated)",
    "CLASS_LABEL": "false"
  },
  {
    "MOLECULE": "Cc1ccc2c(CC(=O)O)cc(=O)oc2c1",
    "CLASS_LABEL": "false"
  },
  {
    "MOLECULE": "NNC(=O)c1ccccc1Nc1nc(-c2cccs2)nc2ccc(Br)cc12",
    "CLASS_LABEL": "false"
  },
  {
    "MOLECULE": "COC(=O)C(/C(=N\\O)C(=O)Nc1ccc(Br)cc1)c1nc2ccccc2nc1O (configuration not stated)",
    "CLASS_LABEL": "false"
  },
  {
    "MOLECULE": "O=c1[nH]c(=O)n(COCc2ccccc2)c2ccc([N+](=O)[O-])cc12",
    "CLASS_LABEL": "false"
  },
  {
    "MOLECULE": "C=CC/N=C1/N=C(CC(=O)OCC)CS1",
    "CLASS_LABEL": "false"
  },
  {
    "MOLECULE": "CC1CNC(c2cccc(OCc3ccc(COc4cccc(C5=NC(C)CN5)c4)cc3)c2)=N1 (configuration not stated)",
    "CLASS_LABEL": "false"
  },
  {
    "MOLECULE": "COc1ccc2c3c([nH]c2c1)-c1nc2ccccc2c(=O)n1CC3",
    "CLASS_LABEL": "false"
  },
  {
    "MOLECULE": "COc1ccc(C2C(Cl)C(=O)N2NC(=O)c2ccc(NC(C)=O)cc2)cc1OC (configuration not stated)",
    "CLASS_LABEL": "false"
  },
  {
    "MOLECULE": "S=P1(Oc2ccccc2)NNP2(=NP(N3CC3)(N3CC3)=NP(N3CC3)(N3CC3)=N2)NN1 (configuration not stated)",
    "CLASS_LABEL": "false"
  },
  {
    "MOLECULE": "O=C(/C=C/c1ccc(O)c(O)c1)OCCOC(=O)/C=C/c1ccc(O)c(O)c1",
    "CLASS_LABEL": "false"
  },
  {
    "MOLECULE": "COC1(OC)C2(Cl)C(Cl)=C(Cl)C1(Cl)C1COCC12 (configuration not stated)",
    "CLASS_LABEL": "false"
  },
  {
    "MOLECULE": "O=C(N/C(=C\\c1cc(Cl)ccc1Cl)c1nc2ccccc2[nH]1)c1ccccc1",
    "CLASS_LABEL": "false"
  },
  {
    "MOLECULE": "CC(=O)OCc1nnn2c1C(OC(C)=O)CC2 (configuration not stated)",
    "CLASS_LABEL": "false"
  },
  {
    "MOLECULE": "CN1C=C(C(N)=O)Cc2ccsc21",
    "CLASS_LABEL": "false"
  },
  {
    "MOLECULE": "CNCC(SC)c1ccc(O)c(O)c1 (configuration not stated)",
    "CLASS_LABEL": "false"
  },
  {
    "MOLECULE": "CCN(CC)CC[n+]1ccc2c(C)c3[nH]c4ccccc4c3c(C)c2c1",
    "CLASS_LABEL": "true"
  },
  {
    "MOLECULE": "O=C1NC(=S)NC(=O)C1=Cc1ccc(-c2ccccc2)cc1",
    "CLASS_LABEL": "false"
  },
  {
    "MOLECULE": "CCOC(=O)/C1=C(\\C)N(c2ccc(C)cc2)C(=O)c2ccccc2C(=O)c2c(O)ccc(O)c21",
    "CLASS_LABEL": "false"
  },
  {
    "MOLECULE": "COc1cccc(/C=C2\\CCC(CCN(C)C)(C3=CCCC3)C2=O)c1 (configuration not stated)",
    "CLASS_LABEL": "false"
  }
]

---

- System: BT-549
- EXPERIMENT_SUMMARY: NCI tumour cell line growth inhibition, 48 h
Calls of active or inactive are those of the source. Rule as the data show it: active = GI50 up to about 1.1 µM and inactive = higher.

[
  {
    "COMPOUND": "CC(C)(C)CNCCCNc1ccc(Cl)cc1",
    "TARGET_OR_TEST_SYSTEM": "BT-549",
    "GI50": "70.6 µM (inactive)"
  },
  {
    "COMPOUND": "CCOC(=O)CN1C(=O)C(=O)N(c2ccc(OC)c3ccccc23)C1=O",
    "TARGET_OR_TEST_SYSTEM": "BT-549",
    "GI50": "> 100 µM (inactive)"
  },
  {
    "COMPOUND": "CCOC(=O)C(NC(=O)OC(C)(C)C)C(=O)OCC",
    "TARGET_OR_TEST_SYSTEM": "BT-549",
    "GI50": "> 100 µM (inactive)"
  },
  {
    "COMPOUND": "CN1Cc2ccccc2S(=O)(=O)n2cccc2C1=O",
    "TARGET_OR_TEST_SYSTEM": "BT-549",
    "GI50": "> 100 µM (inactive)"
  },
  {
    "COMPOUND": "O=S1(=O)OCCOS(=O)(=O)C1S(=O)(=O)c1ccc2ccccc2c1",
    "TARGET_OR_TEST_SYSTEM": "BT-549",
    "GI50": "> 100 µM (inactive)"
  },
  {
    "COMPOUND": "C#CC1(O)C(COP(=O)(O)OC(COCCCCCCCCCCCCCCCCCC)COP(=O)(O)OCC2OC(n3cc(C)c(=O)[nH]c3=O)CC2N=[N+]=[N-])OC(n2ccc(N)nc2=O)C1O (stereo not given)",
    "TARGET_OR_TEST_SYSTEM": "BT-549",
    "GI50": "2.68 µM (inactive)"
  },
  {
    "COMPOUND": "O=P(O)(O)c1ccccc1Oc1ccccc1",
    "TARGET_OR_TEST_SYSTEM": "BT-549",
    "GI50": "> 100 µM (inactive)"
  },
  {
    "COMPOUND": "COc1cc(OCc2ccccc2)c2c(CCC(=O)O)cc(=O)oc2c1.COc1cc(OCc2ccccc2)cc2oc(=O)cc(CCC(=O)O)c12",
    "TARGET_OR_TEST_SYSTEM": "BT-549",
    "GI50": "57.5 µM (inactive)"
  },
  {
    "COMPOUND": "CC(O)CN1c2ccccc2Sc2ccc(Cl)cc21 (stereo not given)",
    "TARGET_OR_TEST_SYSTEM": "BT-549",
    "GI50": "> 10 µM (inactive)"
  },
  {
    "COMPOUND": "Cc1cs/c(=N/c2ccccc2)n1CCC(O)(P(=O)(O)O)P(=O)(O)O",
    "TARGET_OR_TEST_SYSTEM": "BT-549",
    "GI50": "> 100 µM (inactive)"
  }
]
